# System: Streptococcus agalactiae
# protocol text: In vitro MIC against bovine mastitis strains
# Type: cell-based
# stated conditions: Internal Ref. No. 371, isolated from the bovine udder, read-out: Approximate MIC
Reported values of MIC for individual entries

compound: COc1cccc(CCCOc2cc(Cc3cnc(N)nc3N)cc(OC)c2OC)c1
MIC [µM]: 0.75

compound: COc1cc(Cc2cnc(N)nc2N)cc(OCCOCc2ccccc2)c1OC
MIC [µM]: 2.5

compound: COc1cc(Cc2cnc(N)nc2N)cc(OC)c1OC [Trimethoprim, reference compound]
MIC [µM]: 3.3

compound: COc1cc(Cc2cnc(N)nc2N)cc(OCCCCc2ccccc2)c1OC
MIC [µM]: 0.25

compound: COc1cc(Cc2cnc(N)nc2N)cc(OCCCc2ccccc2)c1OC
MIC [µM]: 0.75

###

# Tested on: Strep.Faecalis CN 478
experimental endpoint: MIC (mg/L)

compound: COc1cc(Cc2cnc(N)nc2N)cc(OCCSc2ccccc2)c1OC
units symbol: mg/L
value measured: 0.5
//
compound: COc1cc(Cc2cnc(N)nc2N)cc(OC)c1OC [Trimethoprim, reference compound]
units symbol: mg/L
value measured: 0.1
//
compound: COc1cc(Cc2cnc(N)nc2N)cc(OCCCOc2ccccc2)c1OC
units symbol: mg/L
value measured: 0.1
//
compound: COc1cccc(CCCOc2cc(Cc3cnc(N)nc3N)cc(OC)c2OC)c1
units symbol: mg/L
value measured: 0.3
//
compound: COc1cc(Cc2cnc(N)nc2N)cc(OCCSCc2ccccc2)c1OC
units symbol: mg/L
value measured: 0.1
//
compound: CCc1cc(Cc2cnc(N)nc2N)cc(CC)c1OCCOCc1ccccc1
units symbol: mg/L
value measured: 0.3
//
compound: COc1cc(Cc2cnc(N)nc2N)cc(OCCCc2ccccc2)c1OC
units symbol: mg/L
value measured: 0.1
//
compound: COc1cc(Cc2cnc(N)nc2N)cc(OCCCCc2ccccc2)c1OC
units symbol: mg/L
value measured: 0.1

###

Below is a list of entries, each paired with its recorded MIC value.
# System: St. pyogenes
# protocol text: In vitro antibacterial activity (MIC)
# Type: cell-based
# stated conditions: Streptococcus pyogenes; read-out: MIC St. pyogenes S3640
experimental endpoint: MIC (µg/mL)

molecule: COc1cc(Cc2cnc(N)nc2N)cc(OCCCOc2ccccc2)c1OC [compound 5]
value measured: 0.3

molecule: COc1cc(Cc2cnc(N)nc2N)cc(OCCCCc2ccccc2)c1OC [compound 3]
value measured: 0.1

molecule: COc1cc(Cc2cnc(N)nc2N)cc(OCCSc2ccccc2)c1OC [Example 14]
value measured: 0.5

molecule: CCc1cc(Cc2cnc(N)nc2N)cc(CC)c1OCCOCc1ccccc1 [Example 6]
value measured: 1

molecule: COc1cccc(CCCOc2cc(Cc3cnc(N)nc3N)cc(OC)c2OC)c1 [compound 2]
value measured: 1

molecule: COc1cc(Cc2cnc(N)nc2N)cc(OCCSCc2ccccc2)c1OC [Example 15]
value measured: 0.5

molecule: COc1cc(Cc2cnc(N)nc2N)cc(OCCCc2ccccc2)c1OC [compound 1]
value measured: 0.3

###

# protocol text: LD50 intraperitoneal in male rats
# stated conditions: rat, in vivo, ip
# Procedure: The LD50's ( expressed in rng/kg intraperitoneal) of two compounds of the present invention were determined in male rats.

smiles notation: COc1cc(Cc2cnc(N)nc2N)cc(OCCCc2ccccc2)c1OC
LD50: > 100 mg/kg

smiles notation: COc1cccc(CCCOc2cc(Cc3cnc(N)nc3N)cc(OC)c2OC)c1
LD50: > 100 mg/kg

###

# target or test system: UniProtKB P04174
# Sequence (P04174 whole entry): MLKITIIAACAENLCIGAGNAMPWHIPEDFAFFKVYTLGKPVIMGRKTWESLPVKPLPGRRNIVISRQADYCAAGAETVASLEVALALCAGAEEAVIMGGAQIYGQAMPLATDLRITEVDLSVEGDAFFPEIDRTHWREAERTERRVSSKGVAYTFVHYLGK
Structures can show the parent of a compound that is named as a salt.
Measured IC50 values are reported for all entries that follow.

compound: COc1cc(Cc2cnc(N)nc2N)cc(OCCCc2ccccc2)c1OC [compound 1]
units symbol: µM
IC50: 0.015
//
compound: COc1cc(Cc2cnc(N)nc2N)cc(OCCCCOc2ccccc2)c1OC [Example 10, hydrochloride]
units symbol: µM
IC50: 0.019
//
compound: CCc1cc(Cc2cnc(N)nc2N)cc(CC)c1OCCOCc1ccccc1 [Example 6]
units symbol: µM
IC50: 0.048
//
compound: COc1cc(Cc2cnc(N)nc2N)cc(OCCCOc2ccccc2)c1OC [compound 5]
units symbol: µM
IC50: 0.032
//
compound: COc1cc(Cc2cnc(N)nc2N)cc(OCCCCc2ccccc2)c1OC [compound 3]
units symbol: µM
IC50: 0.018
//
compound: COc1cc(Cc2cnc(N)nc2N)cc(OCCSc2ccccc2)c1OC [Example 14]
units symbol: µM
IC50: 0.0114
//
compound: COc1cc(Cc2cnc(N)nc2N)cc(OCCSCc2ccccc2)c1OC [Example 15]
units symbol: µM
IC50: 0.018
//
compound: COc1cccc(CCCOc2cc(Cc3cnc(N)nc3N)cc(OC)c2OC)c1 [compound 2]
units symbol: µM
IC50: 0.018
//
compound: COc1cc(Cc2cnc(N)nc2N)cc(OCCOCc2ccccc2)c1OC [compound 4]
units symbol: µM
IC50: 0.078

###

# Test system: N. gonorrhea
# protocol text: In vitro antibacterial activity versus TMP, Wellcome test
# Type: cell-based
# stated conditions: activity relative to trimethoprim
If the reported Act., vs TMP N. gonorrhea Wellcome test equals or exceeds 4, assign condition met. If not, assign condition not met.

smiles notation: COc1cc(Cc2cnc(N)nc2N)cc(OCCCc2ccccc2)c1OC
class name: condition met

smiles notation: CCc1cc(Cc2cnc(N)nc2N)cc(CC)c1OCCOCc1ccccc1
class name: condition not met

smiles notation: COc1cc(Cc2cnc(N)nc2N)cc(OCCCCc2ccccc2)c1OC
class name: condition not met

smiles notation: COc1cc(Cc2cnc(N)nc2N)cc(OCCCOc2ccccc2)c1OC
class name: condition met

smiles notation: COc1cccc(CCCOc2cc(Cc3cnc(N)nc3N)cc(OC)c2OC)c1
class name: condition not met

###

Listed molecules paired with reported MIC
# System: Staphylococcus aureus
# protocol text: In vitro MIC against bovine mastitis strains
# Type: cell-based
# stated conditions: Internal Ref. No. 317, isolated from the bovine udder, read-out: Approximate MIC

molecule: COc1cc(Cc2cnc(N)nc2N)cc(OCCCc2ccccc2)c1OC
units symbol: µM
MIC: 0.025
//
molecule: COc1cc(Cc2cnc(N)nc2N)cc(OC)c1OC [Trimethoprim, reference compound]
units symbol: µM
MIC: 0.33
//
molecule: COc1cccc(CCCOc2cc(Cc3cnc(N)nc3N)cc(OC)c2OC)c1
units symbol: µM
MIC: 0.025
//
molecule: COc1cc(Cc2cnc(N)nc2N)cc(OCCCCc2ccccc2)c1OC
units symbol: µM
MIC: 0.025
//
molecule: COc1cc(Cc2cnc(N)nc2N)cc(OCCOCc2ccccc2)c1OC
units symbol: µM
MIC: 0.075

###

# target or test system: Dihydrofolate reductase (Rattus norvegicus, UniProt Q920D2)
# Construct: Rat liver; from tissue; host or cells: rat liver
# Sequence (Q920D2 whole entry): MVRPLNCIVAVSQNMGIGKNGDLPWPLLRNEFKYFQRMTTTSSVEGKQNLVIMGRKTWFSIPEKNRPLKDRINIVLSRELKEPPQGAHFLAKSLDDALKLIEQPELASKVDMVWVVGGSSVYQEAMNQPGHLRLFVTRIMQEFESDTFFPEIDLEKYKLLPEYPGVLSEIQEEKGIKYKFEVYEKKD
# protocol text: Dihydrofolate reductase inhibition
# Assay type: biochemical, Rat liver
Structures can show the parent of a compound that is named as a salt.
experimental endpoint: IC50 (µM)

molecule: COc1cc(Cc2cnc(N)nc2N)cc(OCCCc2ccccc2)c1OC
value measured: 94

molecule: COc1cc(Cc2cnc(N)nc2N)cc(OCCCOc2ccccc2)c1OC
value measured: 80

molecule: COc1cc(Cc2cnc(N)nc2N)cc(OCCSc2ccccc2)c1OC
value measured: 37

molecule: COc1cc(Cc2cnc(N)nc2N)cc(OCCCCOc2ccccc2)c1OC [Example 10, hydrochloride]
value measured: 74

molecule: COc1cc(Cc2cnc(N)nc2N)cc(OCCSCc2ccccc2)c1OC
value measured: 47

molecule: COc1cc(Cc2cnc(N)nc2N)cc(OCCOCc2ccccc2)c1OC
value measured: 300

molecule: COc1cccc(CCCOc2cc(Cc3cnc(N)nc3N)cc(OC)c2OC)c1
value measured: 83

molecule: COc1cc(Cc2cnc(N)nc2N)cc(OCCCCc2ccccc2)c1OC
value measured: 43

###

# target or test system: Dihydrofolate reductase (Plasmodium berghei, UniProt Q27713)
# Sequence (Q27713 whole entry): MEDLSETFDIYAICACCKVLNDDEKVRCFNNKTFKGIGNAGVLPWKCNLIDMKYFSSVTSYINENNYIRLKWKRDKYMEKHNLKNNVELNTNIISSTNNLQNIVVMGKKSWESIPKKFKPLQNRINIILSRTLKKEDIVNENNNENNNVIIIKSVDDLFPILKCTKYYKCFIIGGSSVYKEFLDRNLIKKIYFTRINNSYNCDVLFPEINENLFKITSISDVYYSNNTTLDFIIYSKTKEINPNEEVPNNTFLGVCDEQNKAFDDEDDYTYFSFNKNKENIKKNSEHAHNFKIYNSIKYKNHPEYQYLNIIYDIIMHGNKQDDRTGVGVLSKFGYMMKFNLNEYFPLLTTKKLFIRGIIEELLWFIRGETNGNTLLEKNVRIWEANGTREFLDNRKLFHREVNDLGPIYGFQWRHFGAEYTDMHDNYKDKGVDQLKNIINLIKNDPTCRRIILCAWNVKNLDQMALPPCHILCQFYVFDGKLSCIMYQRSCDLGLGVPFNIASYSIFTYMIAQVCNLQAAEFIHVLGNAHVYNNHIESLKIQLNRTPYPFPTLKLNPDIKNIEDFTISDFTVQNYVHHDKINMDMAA
# Lookup of reported IC50 keyed by entry

smiles notation: CCc1cc(Cc2cnc(N)nc2N)cc(CC)c1OCCOCc1ccccc1
target or test system: Dihydrofolate reductase (Plasmodium berghei, UniProt Q27713)
IC50 / nM: 34
//
smiles notation: COc1cc(Cc2cnc(N)nc2N)cc(OCCCc2ccccc2)c1OC
target or test system: Dihydrofolate reductase (Plasmodium berghei, UniProt Q27713)
IC50 / nM: 100
//
smiles notation: COc1cc(Cc2cnc(N)nc2N)cc(OCCCCc2ccccc2)c1OC
target or test system: Dihydrofolate reductase (Plasmodium berghei, UniProt Q27713)
IC50 / nM: 11
//
smiles notation: COc1cc(Cc2cnc(N)nc2N)cc(OCCCOc2ccccc2)c1OC
target or test system: Dihydrofolate reductase (Plasmodium berghei, UniProt Q27713)
IC50 / nM: 150
//
smiles notation: COc1cccc(CCCOc2cc(Cc3cnc(N)nc3N)cc(OC)c2OC)c1
target or test system: Dihydrofolate reductase (Plasmodium berghei, UniProt Q27713)
IC50 / nM: 57

Values compiled from patent EP0054756A2.
